Origin of the recorded values: patent US11613542B2

# log10 T1/2 annotations
Assay: Pharmacokinetic parameters in male Sprague Dawley rats (intravenous and oral administration)
Type: in vivo
Conditions: intravenous administration, rat plasma; dose per compound (mg/kg)
Structures can show the parent of a compound that is named as a salt.
Answers are given as log10 of T1/2 in h.

INSERT INTO results (compound, endpoint_value) VALUES
  ('CC(C)c1cc(F)cc(C(C)C)c1NC(=O)NS(=O)(=O)c1cc(C(=O)N(C)C)n(C)n1 [Example 160, sodium salt]', 0.52),
  ('CC(C)c1cc(F)cc(C(C)C)c1NC(=O)NS(=O)(=O)c1cc(C(=O)N2CCC2)n(C)n1 [Example 145, sodium salt]', 0.81),
  ('CN(C)C(=O)c1cc(S(=O)(=O)NC(=O)Nc2c3c(cc4c2CCC4)CCC3)nn1C [Example 169, sodium salt]', 1.40),
  ('CC(C)c1cc(Cl)cc(C(C)C)c1NC(=O)NS(=O)(=O)c1cc(C(=O)N(C)C)n(C)n1 [Example 168]', 0.11),
  ('CC(C)c1cc(F)cc(-c2cccnc2)c1NC(=O)NS(=O)(=O)c1cc(C(=O)N(C)C)n(C)n1 [Example 141, sodium salt]', 0.80),
  ('CC(C)c1cc(F)cc(-c2cnn(C)c2)c1NC(=O)NS(=O)(=O)c1cc(C(=O)N(C)C)n(C)n1 [Example 135, sodium salt]', 1.08),
  ('CC(C)c1cc(F)cc(-c2cccnc2)c1NC(=O)NS(=O)(=O)c1cc(CN(C)C)n(C)n1 [Example 61]', -0.30),
  ('CC(C)c1cc(F)cc(C2CCOCC2)c1NC(=O)NS(=O)(=O)c1cc(C(=O)N(C)C)n(C)n1 [Example 133, sodium salt]', 0.36);

Request: Report log10 T1/2, nothing else, for this compound: CCN(C)C(=O)c1cc(S(=O)(=O)NC(=O)Nc2c3c(cc4c2CCC4)CCC3)nn1C [Example 162]
Result: -1.00

Request: Report log10 T1/2, nothing else, for this compound: CC(C)c1cccc(C(C)C)c1NC(=O)NS(=O)(=O)c1cc(C(=O)N(C)C)n(C)n1 [Example 167, sodium salt]
Result: -0.30

Request: Report log10 T1/2, nothing else, for this compound: Cc1cc(-c2cc(F)cc(C(C)C)c2NC(=O)NS(=O)(=O)c2cc(CN(C)C)n(C)n2)n(C)n1 [Example 60]
Result: -0.30

====

Test: Pharmacokinetic parameters in male Sprague Dawley rats (intravenous and oral administration)
Assay type: in vivo
Conditions: intravenous administration, rat plasma; dose per compound (mg/kg)
Structures can show the parent of a compound that is named as a salt.
// assign T if T1/2 falls strictly below 1 h, else F (ties count as F)

INSERT INTO results (molecule, answer_label) VALUES
  ('CC(C)c1cc(F)cc(-c2cccc(C#N)c2)c1NC(=O)NS(=O)(=O)c1cc(CN(C)C)n(C)n1', 'F'),
  ('CCn1nc(S(=O)(=O)NC(=O)Nc2c(-c3ccnc(OC)c3)ccc3c2CCC3)cc1CN(C)C', 'F'),
  ('COc1cc(-c2cc(F)cc(C(C)C)c2NC(=O)NS(=O)(=O)c2cc(CN(C)C)n(C)n2)ccn1', 'T'),
  ('CN(CCO)C(=O)c1cc(S(=O)(=O)NC(=O)Nc2c3c(cc4c2CCC4)CCC3)nn1C [Example 176, ammonium salt]', 'T'),
  ('CN(CCO)Cc1cc(S(=O)(=O)NC(=O)Nc2c3c(cc4c2CCC4)CCC3)nn1C', 'F'),
  ('COc1cc(-c2cc(F)cc(C(C)C)c2NC(=O)NS(=O)(=O)c2cc(CN(C)C)n(C(C)C)n2)ccn1', 'T');

For the next question, use this molecule.
Request: Below 1 h on T1/2? Entry CC(C)n1nc(S(=O)(=O)NC(=O)Nc2c3c(cc4c2CCC4)CCC3)cc1C(=O)N1CCC1 [Example 131, ammonium salt]
Result: F

====

Molecular target: NLRP3 (Homo sapiens, UniProt Q96P20)
Sequence (Q96P20 whole entry): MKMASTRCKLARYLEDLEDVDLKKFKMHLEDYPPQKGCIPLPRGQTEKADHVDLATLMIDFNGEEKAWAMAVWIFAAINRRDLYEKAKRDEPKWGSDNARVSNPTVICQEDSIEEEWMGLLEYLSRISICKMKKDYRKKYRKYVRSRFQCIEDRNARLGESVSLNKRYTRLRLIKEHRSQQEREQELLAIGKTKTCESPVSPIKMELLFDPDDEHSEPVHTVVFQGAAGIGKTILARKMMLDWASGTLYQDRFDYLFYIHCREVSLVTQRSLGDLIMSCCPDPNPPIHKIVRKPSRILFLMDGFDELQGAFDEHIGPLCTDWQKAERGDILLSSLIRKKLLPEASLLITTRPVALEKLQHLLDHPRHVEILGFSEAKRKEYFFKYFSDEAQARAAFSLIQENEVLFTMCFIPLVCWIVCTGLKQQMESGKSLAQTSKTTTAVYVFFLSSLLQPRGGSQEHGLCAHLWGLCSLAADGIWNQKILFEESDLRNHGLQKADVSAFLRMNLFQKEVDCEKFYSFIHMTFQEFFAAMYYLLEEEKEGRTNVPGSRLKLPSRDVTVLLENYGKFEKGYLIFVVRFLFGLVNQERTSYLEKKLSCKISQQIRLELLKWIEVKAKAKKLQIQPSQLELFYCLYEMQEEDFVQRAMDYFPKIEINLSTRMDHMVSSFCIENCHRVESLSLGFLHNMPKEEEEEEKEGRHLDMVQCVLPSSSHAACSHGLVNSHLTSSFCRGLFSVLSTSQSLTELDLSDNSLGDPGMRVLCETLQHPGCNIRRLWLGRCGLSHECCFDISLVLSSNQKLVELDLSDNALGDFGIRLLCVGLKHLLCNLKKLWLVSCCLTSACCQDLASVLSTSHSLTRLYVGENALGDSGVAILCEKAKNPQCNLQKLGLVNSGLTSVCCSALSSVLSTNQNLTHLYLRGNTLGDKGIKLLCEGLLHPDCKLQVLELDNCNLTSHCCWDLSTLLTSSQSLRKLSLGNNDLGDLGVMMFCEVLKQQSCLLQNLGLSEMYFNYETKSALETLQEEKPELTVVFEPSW
Experiment: THP-1 cells pyroptosis assay
Assay type: cell-based
Set-up: Seed THP-1 cells (25,000 cells/well) containing 1.0 μg/ml LPS; host or cells: THP-1 cells, LPS-primed, nigericin-stimulated
Conditions: THP-1 cells, 1.0 μg/ml LPS, compound 3 hrs, nigericin 5 μM 1 hr, resazurin readout; read-out: THP IC50
Where a name gives a salt, the structure may show the parent alone.
# IC50 annotations

INSERT INTO assay_data (molecule, endpoint_value) VALUES
  ('CN(C)CCn1ccc(S(=O)(=O)NC(=O)Nc2c3c(cc4c2CCC4)CCC3)n1', '< 0.64 µM'),
  ('CN1CC(n2ccc(S(=O)(=O)NC(=O)Nc3c4c(cc5c3CCC5)CCC4)n2)C1', '< 2.56 µM'),
  ('COc1cc(-c2ccc3c(c2NC(=O)NS(=O)(=O)c2ccn(CCN(C)C)n2)CCC3)ccn1', '< 0.16 µM'),
  ('CC(C)(C#N)n1ccc(S(=O)(=O)NC(=O)Nc2c3c(cc4c2CCC4)CCC3)n1', '< 0.16 µM');

Request: Report IC50, nothing else, for this molecule: `COc1cc(-c2cc(F)c3c(c2NC(=O)NS(=O)(=O)c2ccn(CCN(C)C)n2)CCC3)ccn1`
Result: < 0.04 µM

Request: Report IC50, nothing else, for this molecule: `CNC(=O)c1cc(S(=O)(=O)NC(=O)Nc2c(C(C)C)cc(Cl)cc2C(C)C)nn1C`
Result: < 0.64 µM

Request: Report IC50, nothing else, for this molecule: COCCN(C)Cc1cc(S(=O)(=O)NC(=O)Nc2c(C(C)C)cc(F)cc2C(C)C)nn1C [Example 125, sodium salt]
Result: < 2.56 µM

Request: Report IC50, nothing else, for this molecule: `O=C(Nc1c2c(cc3c1CCC3)CCC2)NS(=O)(=O)c1ccn(-c2cccnc2)n1`
Result: < 2.56 µM

====

Assay: Pharmacokinetic parameters in male Sprague Dawley rats (intravenous and oral administration)
Assay type: in vivo
Conditions: intravenous administration, rat plasma; dose per compound (mg/kg)
Where a name gives a salt, the structure may show the parent alone.
measurement.label: Cl (mL/min/kg)
Just the number in mL/min/kg, nothing appended.

INSERT INTO measurements (compound, measurement_label, result_units, endpoint_value) VALUES
  ('CC(C)c1cc(F)cc(C(C)C)c1NC(=O)NS(=O)(=O)c1cc(C(=O)N2CCC2)n(C)n1 [Example 145, sodium salt]', 'Cl', 'mL/min/kg', 40.3),
  ('CCn1nc(S(=O)(=O)NC(=O)Nc2c(-c3ccnc(OC)c3)ccc3c2CCC3)cc1CN(C)C', 'Cl', 'mL/min/kg', 10.5),
  ('CC(C)c1cc(F)cc(C(C)C)c1NC(=O)NS(=O)(=O)c1cc(C(=O)N(C)C)n(C)n1 [Example 160, sodium salt]', 'Cl', 'mL/min/kg', 59.2),
  ('CC(C)c1cccc(C(C)C)c1NC(=O)NS(=O)(=O)c1cc(C(=O)N(C)C)n(C)n1 [Example 167, sodium salt]', 'Cl', 'mL/min/kg', 48.7);

Request: Report Cl, nothing else, for this compound: `COc1cc(-c2cc(F)cc(C(C)C)c2NC(=O)NS(=O)(=O)c2cc(CN(C)C)n(C)n2)ccn1`
Result: 47.6

Request: Report Cl, nothing else, for this compound: `CC(C)c1cc(F)cc(-c2cccc(C#N)c2)c1NC(=O)NS(=O)(=O)c1cc(CN(C)C)n(C)n1`
Result: 51.5

Request: Report Cl, nothing else, for this compound: `COc1cc(-c2cc(F)cc(C(C)C)c2NC(=O)NS(=O)(=O)c2cc(CN(C)C)n(C(C)C)n2)ccn1`
Result: 67.2

====

# Vdss annotations
Test: Pharmacokinetic parameters in male Sprague Dawley rats (intravenous and oral administration)
Type: in vivo
Conditions: intravenous administration, rat plasma; dose per compound (mg/kg)
Where a name gives a salt, the structure may show the parent alone.
Just the number in L/kg, nothing appended.

INSERT INTO measurements (molecule, endpoint_value) VALUES
  ('COc1cc(-c2cc(F)cc(C(C)C)c2NC(=O)NS(=O)(=O)c2cc(CN(C)C)n(C(C)C)n2)ccn1 [Example 67]', 1.32),
  ('COc1cc(-c2cc(F)cc(C(C)C)c2NC(=O)NS(=O)(=O)c2cc(CN(C)C)n(C)n2)ccn1 [Example 68]', 0.8),
  ('CC(C)c1cc(F)cc(C2CCOCC2)c1NC(=O)NS(=O)(=O)c1cc(C(=O)N(C)C)n(C)n1 [Example 133, sodium salt]', 2.72),
  ('CC(C)c1cc(F)cc(-c2cccnc2)c1NC(=O)NS(=O)(=O)c1cc(CN(C)C)n(C)n1 [Example 61]', 0.75);

Request: Report Vdss, nothing else, for this molecule: CC(C)c1cc(F)cc(-c2cnn(C)c2)c1NC(=O)NS(=O)(=O)c1cc(C(=O)N(C)C)n(C)n1 [Example 135, sodium salt]
Result: 3.03

Request: Report Vdss, nothing else, for this molecule: CC(C)c1cc(F)cc(-c2cccc(C#N)c2)c1NC(=O)NS(=O)(=O)c1cc(CN(C)C)n(C)n1 [Example 66]
Result: 1.14
